system: Bacillus subtilis; assay: Antibacterial activity against Bacillus subtilis assessed as zone of inhibition at 1000 ug/ml after 24 hrs by agar diffusion method; assay type: functional; details: read-out: IZ
Readout Name: zone of inhibition at 1000 µg/mL

                                item_smiles  value_observed
0  c1ccc(-c2ccc(-c3n[nH]cc3-c3nc(-c4ccccc4)c(-c4ccccc4)[nH]3)cc2)cc1            3 mm
1  Clc1ccc(-c2n[nH]cc2-c2nc(-c3ccccc3)c(-c3ccccc3)[nH]2)c(Cl)c1            6 mm
2  COC(=O)/C=C1/C(=O)NC(=S)N1/N=C/c1c[nH]nc1-c1ccc(C)cc1            9 mm
3  COC(=O)/C=C1/C(=O)NC(=S)N1/N=C/c1c[nH]nc1-c1ccc(Cl)cc1Cl            8 mm
4  Brc1ccc(-c2nc(-c3c[nH]nc3-c3ccc(-c4ccccc4)cc3)[nH]c2-c2ccc(Br)cc2)cc1            4 mm
